- testSystem: human glucagon-like peptide 1 receptor (human, UniProt P43220 24-463)
- Sequence (P43220 24-463): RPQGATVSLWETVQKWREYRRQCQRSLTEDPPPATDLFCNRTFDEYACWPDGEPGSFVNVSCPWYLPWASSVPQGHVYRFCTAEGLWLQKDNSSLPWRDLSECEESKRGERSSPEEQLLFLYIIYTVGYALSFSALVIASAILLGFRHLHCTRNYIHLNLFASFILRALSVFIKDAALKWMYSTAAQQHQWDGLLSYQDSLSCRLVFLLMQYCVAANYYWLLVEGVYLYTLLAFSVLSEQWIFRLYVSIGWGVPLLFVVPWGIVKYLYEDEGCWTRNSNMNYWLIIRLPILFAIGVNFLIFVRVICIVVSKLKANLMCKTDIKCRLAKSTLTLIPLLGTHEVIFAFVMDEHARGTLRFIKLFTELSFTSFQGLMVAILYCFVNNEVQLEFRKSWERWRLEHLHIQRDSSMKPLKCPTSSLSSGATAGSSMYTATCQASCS
- procedureSummary: cell-based or functional assay
Quick reference: GLP-1R EC50 (cAMP formation in HEK293 cells expressing human GLP-1-R) of the listed items.
recordedMetric: GLP-1R EC50 (cAMP formation in HEK293 cells expressing human GLP-1-R) (nmol)

binder="H-HSQGTFTSDYSKYLDERRAQDFIEWLLSA-NH2 [L006-0082]" quantitativeresult=0.09
binder="H-HSQGTFTSDYSKYLDERRAKDFIDWLLSA-NH2 [L006-0129]" quantitativeresult=0.2
binder="H-HSQGTFTSDYSKYLDSRRAQDFIEWLLSA-NH2 [L006-0090]" quantitativeresult=0.15
binder="H-HSQGTFTSDYSKYLDERRAKDFIEWLLAA-NH2 [L006-0136]" quantitativeresult=0.22
binder="H-HSQGTFTSDYSKYLDERRAKDFIEWLLRA-NH2 [L006-0138]" quantitativeresult=0.29
binder="H-HSQGTFTSDYSKYLDKRRAEDFIKWLLSA-NH2 [L006-0094]" quantitativeresult=0.16

Cited source for all entries: patent US20110286981A1
